system tested: TSPO (Homo sapiens, UniProt P30536)
Sequence (P30536 2-169): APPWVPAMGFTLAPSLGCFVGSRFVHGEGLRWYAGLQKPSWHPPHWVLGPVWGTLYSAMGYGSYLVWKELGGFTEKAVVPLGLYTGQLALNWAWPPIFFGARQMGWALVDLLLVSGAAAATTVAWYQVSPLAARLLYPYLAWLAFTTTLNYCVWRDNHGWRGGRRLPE
experiment: biochemical
pKi: −log10 of the molar value.
endpoint: pKi

>>> test_result("CCN(CC)C(=O)C1Sc2ccccc2-c2c1c1c(OC)cccc1n2CCF (racemic)")
9.29
